Value source: ChEMBL document CHEMBL5113450

target: D(2) dopamine receptor (Homo sapiens); assay: Displacement of [3H]methyl-spiperone from recombinant human D2S receptor measured after 60 mins by scintillation counting analysis
Sequence (P14416 whole entry): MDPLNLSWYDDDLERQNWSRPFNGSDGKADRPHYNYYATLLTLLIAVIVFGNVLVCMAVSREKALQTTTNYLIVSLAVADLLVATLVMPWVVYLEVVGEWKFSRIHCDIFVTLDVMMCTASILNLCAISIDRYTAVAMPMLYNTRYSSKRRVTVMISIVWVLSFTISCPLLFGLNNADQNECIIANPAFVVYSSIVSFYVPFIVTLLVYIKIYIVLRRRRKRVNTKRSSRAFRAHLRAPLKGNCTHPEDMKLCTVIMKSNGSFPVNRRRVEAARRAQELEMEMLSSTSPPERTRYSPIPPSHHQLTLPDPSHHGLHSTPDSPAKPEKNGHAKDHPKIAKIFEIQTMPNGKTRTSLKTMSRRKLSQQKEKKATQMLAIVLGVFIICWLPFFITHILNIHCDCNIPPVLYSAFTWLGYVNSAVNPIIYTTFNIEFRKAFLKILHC
Observation type: pKi
Please report pKi as the negative decimal logarithm of the molar concentration, giving only the number.

Consider the molecule shown here: `c1ccc(Cc2cn(C3CCN(Cc4ccccc4)CC3)nn2)cc1` What is its recorded pKi?
5.20
